Tested on: P. berghei
Assay: 4-day Peters' test, P. berghei-infected mouse malaria model
Format: in vivo
Settings: 30 mg kg−1 day−1 oral, once per day on 4 consecutive days
recorded metric: Activity (%)
Express the result in % but write the number alone.

Some solved entries appear below for comparison.
{"compound": "C[C@H]1[C@H](OC(=O)CCC(=O)O)O[C@@H]2O[C@@]3(C)CC[C@H]4[C@H](C)CC[C@@H]1[C@@]24OO3 [Artesunate, artesunate]", "tgt": "P. berghei", "result unit": "%", "Activity (%)": 99.0}
{"compound": "CCN(CC)CCCC(C)Nc1ccnc2cc(Cl)ccc12 (stereo not shown)", "tgt": "P. berghei", "result unit": "%", "Activity (%)": 99.9}
{"compound": "OC(c1cc(C(F)(F)F)nc2c(C(F)(F)F)cccc12)C1CCCCN1 (stereo not shown)", "tgt": "P. berghei", "result unit": "%", "Activity (%)": 99.9}

Field Activity (%) (entry O=C(/C=C(\O)C(F)(F)C(F)(F)F)c1cccnc1 ) reads 99.8

###

Tested on: P. berghei
Assay: 4-day Peters' test, P. berghei-infected mouse malaria model
Format: in vivo
Conditions: 3 mg kg−1 day−1 oral, once per day on 4 consecutive days
Method: Finally, we tested BH267.meta in vivo in a P. berghei-infected mouse malaria model. For comparison, we included the established antimalarials chloroquine, mefloquine, and artesunate in the assay. Efficacy was determined by a 4-day Peters’ test ([20], [21]) after oral administration of 30, 10, and 3 mg kg^−1 day^−1 for each antimalarial for four consecutive days. […] In vivo efficacy of BH267.meta against P. berghei was determined as previously described ([20], [21]). […]
Recorded Activity (%) by entry
Give the value in % but do not write % after it.

Some molecules with known Activity (%) results, for comparison:
{"molecule": "C[C@H]1[C@H](OC(=O)CCC(=O)O)O[C@@H]2O[C@@]3(C)CC[C@H]4[C@H](C)CC[C@@H]1[C@@]24OO3 [Artesunate, artesunate]", "tgt": "P. berghei", "Activity (%)": 85.0}
{"molecule": "O=C(/C=C(\\O)C(F)(F)C(F)(F)F)c1cccnc1 [BH267.meta]", "tgt": "P. berghei", "Activity (%)": 99.7}
{"molecule": "OC(c1cc(C(F)(F)F)nc2c(C(F)(F)F)cccc12)C1CCCCN1 (stereo not shown) [Mefloquine, mefloquine]", "tgt": "P. berghei", "Activity (%)": 93.0}

Please examine the following record next.
Data point: CCN(CC)CCCC(C)Nc1ccnc2cc(Cl)ccc12 (stereo not shown) [Chloroquine, chloroquine] ; Activity (%) = 99.0

###

Let's look at some molecules and their measured Survival.
Tested on: P. berghei
Experiment: 4-day Peters' test, P. berghei-infected mouse malaria model
Format: in vivo
Conditions: 30 mg kg−1 day−1 oral, once per day on 4 consecutive days
Note: unit days is implicit; provide only the numeric part.

Check out these entries, answers already filled in.
{"molecule": "OC(c1cc(C(F)(F)F)nc2c(C(F)(F)F)cccc12)C1CCCCN1 (stereo not shown)", "tgt": "P. berghei", "Survival / days": 29.1}
{"molecule": "C[C@H]1[C@H](OC(=O)CCC(=O)O)O[C@@H]2O[C@@]3(C)CC[C@H]4[C@H](C)CC[C@@H]1[C@@]24OO3 [Artesunate, artesunate]", "tgt": "P. berghei", "Survival / days": 9.2}
{"molecule": "CCN(CC)CCCC(C)Nc1ccnc2cc(Cl)ccc12 (stereo not shown)", "tgt": "P. berghei", "Survival / days": 21.2}

Let's switch to this molecule now.
Lookup result for O=C(/C=C(\O)C(F)(F)C(F)(F)F)c1cccnc1 ; measured Survival: 13.0
